protocolText: lg P (physical data)
For each of the compounds below, state its logP.
Please reply with the value in numeric form only.

Dear colleague, I am looking for the recorded logP of the following compound: "COCCOCCNC(=O)OCCCCCN1CC([N+](=O)[O-])=C2N(Cc3ccc(Cl)nc3)CCN2C1" 1.28

Okay, and "CC(=O)OCCNC(=O)OCCCCCCN1CC([N+](=O)[O-])=C2N(Cc3ccc(Cl)nc3)CCN2C1" ? 1.47

Okay, and "CCOCCOCCNC(=O)OCCCCCN1CC([N+](=O)[O-])=C2N(Cc3ccc(Cl)nc3)CCN2C1" ? 1.44

Okay, and "CC(C)(C)CNC(=O)OCCCCCCN1CC([N+](=O)[O-])=C2N(Cc3ccc(Cl)nc3)CCN2C1" ? 2.05

Okay, and "O=C(Nc1ccccc1)OCCCCN1CC([N+](=O)[O-])=C2N(Cc3ccc(Cl)nc3)CCN2C1" ? 1.72

Okay, and "O=C(Nc1ccc(SC(F)(F)F)cc1)OCCCCCCN1CC([N+](=O)[O-])=C2N(Cc3ccc(Cl)nc3)CCN2C1" ? 2.71

Okay, and "COCCNC(=O)OCCCCCCN1CC([N+](=O)[O-])=C2N(Cc3ccc(Cl)nc3)CCN2C1" ? 1.44

----------
System: Plutella maculipennis
protocolText: Plutella test
Type: in vivo, Plutella maculipennis (diamond-back moth)
conditionSet: 72 h, read-out: Degree of destruction in % after 3d
For each of the compounds below, state its mortality at 0.01 %.
I only need the number, in %, no unit after it.

Dear colleague, I am looking for the recorded mortality at 0.01 % of the following compound: CC(=O)OCCCN1CC([N+](=O)[O-])=C2N(Cc3ccc(Cl)nc3)CCN2C1 [drawing 129] 100

Okay, and CCOC(=O)NCCN1CC([N+](=O)[O-])=C2N(Cc3ccc(Cl)nc3)CCN2C1 [drawing 124] ? 100

Okay, and CC(C)(C)OC(=O)NCCN1CC([N+](=O)[O-])=C2N(Cc3ccc(Cl)nc3)CCN2C1 [drawing 123] ? 100

Okay, and CCOC(=O)NCCCN1CC([N+](=O)[O-])=C2N(Cc3ccc(Cl)nc3)CCN2C1 [drawing 126] ? 100

Okay, and CC(=O)NCCN1CC([N+](=O)[O-])=C2N(Cc3ccc(Cl)nc3)CCN2C1 [drawing 125] ? 100

Okay, and CNC(=O)OCCCN1CC([N+](=O)[O-])=C2N(Cc3ccc(Cl)nc3)CCN2C1 [drawing 128] ? 100

Okay, and "CC(=O)OCCN1CC([N+](=O)[O-])=C2N(Cc3ccc(Cl)nc3)CCN2C1" ? 100

----------
protocolText: lg P (physical data)
For each of the compounds below, state its logP.
Please reply with the value in numeric form only.

Dear colleague, I am looking for the recorded logP of the following compound: CCOCCOCCNC(=O)OCCCCN1CC([N+](=O)[O-])=C2N(Cc3ccc(Cl)nc3)CCN2C1 [Example 59] 1.36

Okay, and CC(C)(C)C(=O)OCCNC(=O)OCCCCN1CC([N+](=O)[O-])=C2N(Cc3ccc(Cl)nc3)CCN2C1 [Example 63] ? 1.73

Okay, and O=C(Nc1ccc(Cl)cc1)OCCCCCCN1CC([N+](=O)[O-])=C2N(Cc3ccc(Cl)nc3)CCN2C1 [Example 53] ? 2.27

Okay, and O=C(Nc1ccc(SC(F)(F)F)cc1)OCCCCCN1CC([N+](=O)[O-])=C2N(Cc3ccc(Cl)nc3)CCN2C1 [Example 44] ? 2.74

Okay, and O=[N+]([O-])C1=C2N(Cc3cnc(Cl)s3)CCN2CN(CCCCCCO)C1 [II-15] ? 0.94

Okay, and COCCOCCNC(=O)OCCCCN1CC([N+](=O)[O-])=C2N(Cc3ccc(Cl)nc3)CCN2C1 [Example 58] ? 1.2

Okay, and COCCOCCNC(=O)OCCCCCCN1CC([N+](=O)[O-])=C2N(Cc3ccc(Cl)nc3)CCN2C1 [Example 46] ? 1.47

Okay, and O=C(Nc1ccc(Cl)c(Cl)c1)OCCCCCCN1CC([N+](=O)[O-])=C2N(Cc3ccc(Cl)nc3)CCN2C1 [Example 54] ? 2.59

Okay, and O=C(Nc1ccccc1)OCCCCCCN1CC([N+](=O)[O-])=C2N(Cc3ccc(Cl)nc3)CCN2C1 [Example 50] ? 2.01

Okay, and COCCNC(=O)OCCCCCN1CC([N+](=O)[O-])=C2N(Cc3ccc(Cl)nc3)CCN2C1 [Example 36] ? 1.24

Okay, and CC(=O)OCCNC(=O)OCCCCN1CC([N+](=O)[O-])=C2N(Cc3ccc(Cl)nc3)CCN2C1 [Example 62] ? 1.22

Okay, and O=C(Nc1ccc(Cl)c(Cl)c1)OCCCCN1CC([N+](=O)[O-])=C2N(Cc3ccc(Cl)nc3)CCN2C1 [Example 65] ? 1.53

Okay, and O=C(Nc1ccc(S(=O)(=O)C(F)(F)F)cc1)OCCCCCN1CC([N+](=O)[O-])=C2N(Cc3ccc(Cl)nc3)CCN2C1 [Example 37] ? 2.29
